Attribution: the supplement of paper PMC11451515

- System: P12-Ichikawa
- run_description: cell viability relative to DMSO control; higher = less cytotoxic
- measurement_conditions: RPMI 5 mM glucose + 10% dialyzed FBS; 48 h; 5.12 µM
readout_name: cell viability (%)

>  <compound>
CC1=CC=C2\N=C/3N(CC[C@@]3(O)C(=O)C2=C1)C4=CC=CC=C4

>  <numeric_value>
81.9

$$$$
>  <compound>
C=CCc1cc(OC)c(O)c(C(=O)NCCO)c1

>  <numeric_value>
84.4

$$$$
>  <compound>
O=C(NCCO[N+](=O)[O-])c1cccnc1

>  <numeric_value>
112

$$$$
>  <compound>
C=CC(=O)Nc1cccc(Oc2nc(Nc3ccc(N4CCN(C)CC4)cc3OC)ncc2Cl)c1

>  <numeric_value>
70.6

$$$$
>  <compound>
Oc1cc2c(cc1O)C1c3ccc(O)c(O)c3OCC1(O)C2 (stereo unspecified)

>  <numeric_value>
105

$$$$
>  <compound>
C[C@]12CC[C@@H]3c4ccc(O)cc4CC[C@H]3[C@@H]1CC[C@@H]2O

>  <numeric_value>
94.1

$$$$
